Each entry below lists one item and its recorded composite z-score value.
Molecular target: Calmodulin-1 (Homo sapiens)
Assay: small molecules binding Ca-loaded calmodulin-1 – biochemical, small-molecule microarray, Cy5-labelled CALM1, plus calcium, artefact control for SMM control-protein annotation, profiling panel (AID 1112);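 also: score merges spot fluorescence with signal to noise from triplicate slides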
Conditions: Cy5-CALM1 binding fluorescence, higher = more signal
Simply state the number, no unit and no words.

{"columns": ["MOLECULE", "NUMERIC READOUT"],
 "data": [
  ["[N-]=[N+]=NCc1ccccc1C[C@]1(C(=O)NCCN2CCOCC2)N=C(c2ccc(OCCCO)cc2)O[C@H]1c1ccccc1", -0.401],
  ["C=C(COC)C(=O)CC[C@H](OC(=O)c1ccccc1-c1ccccc1C(=O)O)c1ccc(CO)o1", -0.564],
  ["CO[C@H]1O[C@H](CO)[C@@H](OC(=O)Nc2cccc(F)c2)[C@H](OC(=O)Nc2ccc3c(c2)OCO3)[C@H]1OC(=O)Nc1ccc2c(c1)OCO2", -0.957]
]}

Inquiry: Fill in: composite z-score of C=CCOC(=O)[C@@H]1[C@H]2C(=O)O[C@H](c3ccccc3)[C@H](c3ccccc3)N2[C@H](c2ccc(OCCOC(=O)[C@H]3C[C@H]4C(=O)N[C@@H](Cc5ccccc5)C(=O)N4[C@H]3c3cccc(OCCO)c3)cc2)[C@@]12C(=O)Nc1ccc(I)cc12 is ___
Reply text: -0.771

Inquiry: Fill in: composite z-score of O=C(CS)NCCCCCNC(=O)[C@@H]1C[C@@H]2C(=O)N3CCC[C@H]3C(=O)N2[C@@H]1c1ccc(O)cc1 is ___
Reply text: 0.194

Inquiry: Fill in: composite z-score of Cc1ccc(F)cc1S(=O)(=O)N[C@@H]1CCN(C(=O)c2ccc(OC(C)C)cc2)C1 is ___
Reply text: -0.603

Inquiry: Fill in: composite z-score of COc1ccccc1CN1C(=O)c2ccccc2[C@@]2(Cc3ccccc3N(C3CC3)C2=O)[C@@H]1c1ccc(CO)cc1 is ___
Reply text: -0.164

Inquiry: Fill in: composite z-score of CCCCC(O)C1C=CC2C(=O)N(Cc3ccccc3)C(=O)C2N1n1cnnc1 (centres undefined) is ___
Reply text: -0.163
